Hi there, I'd appreciate the recorded abundance fitness for every entry that follows.
B1: Zinc finger MYM-type protein 2, residues 463 to 506; numbered along this chain, Q9UBW7 (parent)
chain: IMNCCEQCGEYLPSKGAGNNVLVIDGQQKRFCCQSCVSEYKQVG

variants of: B1; test: abundance fitness (aPCA) (normalised: wild type 0, dead -1); higher = more abundant; growth selection in yeast, the domain comes from the species named; conditions: Homo sapiens
One number for each entry.

Worked set:
* C33A | -0.017
* Q34P | -0.033
* N3K | -0.231
* P13K | -0.678
* K29W | -0.432

Quick batch: abundance fitness for everything below.
1. S38H
2. D25T
3. Q42W

[-0.183, -0.06, -0.398]

For each entry beneath this line, provide reported abundance fitness.
1. L22P
2. S14K
3. C33N
4. E6F
5. E6N
6. K29N

[-0.059, -0.283, -0.164, -0.229, -0.241, -0.464]

# per-item lookup of abundance fitness; items listed below
1. G26W
2. M2I

-0.337
-0.145

Batch lookup, abundance fitness per entry.
1. P13G
2. S14Q
3. C5S
4. N3E
5. I1V

1: -0.278; 2: -0.123; 3: -0.524; 4: -0.036; 5: 0

Origin of measurements: the Human Domainome abundance scans (Beltran et al. 2025)
